System: P388 leukemia ip, CD2F1 mice, survival T/C
Protocol Text: NCI In Vivo Anticancer Drug Screen. Data for tumor model P388 Leukemia (intraperitoneal) in CD2F1 (CDF1) mice
Study Conditions: endpoint: median survival time; dose: 400.0 mg/kg/injection; schedule: Q04DX002 (ip); vehicle: Klucel (hydroxypropylcellulose) (HPC); higher = longer survival
Method: The antitumor activity of compounds was measured in mice bearing transplantable tumors. Survival or tumor size were measured and the results are expressed as the measurement made in the treated group (T) divided by the measurement made in the vehicle treated control group (C). The tumor model used in this assay is P388 Leukemia (intraperitoneal) in CD2F1 (CDF1) mice
Toxic doses and inconclusive results are not listed.
Overview of reported T/C across a group of compounds:

Below, each entry is followed by its recorded T/C result.
INSERT INTO assay_data (compound, quantity, obs_value) VALUES
  ('O=C1CCCCC1N1C(=O)c2ccccc2C1=O (configuration not stated)', 'T/C', '97 % of control'),
  ('O=C1CS/C(=N/C(=O)Nc2ccc(Cl)cc2)N1', 'T/C', '87 % of control'),
  ('CCOC(=O)/C(C#N)=C(\CCC(C(=O)O)N1C(=O)c2ccccc2C1=O)OC (configuration not stated)', 'T/C', '110 % of control'),
  ('Cc1cccc(=O)[n-]1.Cc1cccc(=O)[n-]1.Cc1cccc(=O)[n-]1.Cc1cccc(=O)[n-]1.[Rh+2].[Rh+2]', 'T/C', '100 % of control'),
  ('COC(=O)CC[C@@H](C)C1CC[C@H]2[C@@H]3CC[C@H]4C=C(O)C(=O)C[C@]4(C)[C@H]3C[C@H](OC(C)=O)[C@]12C (some centres not stated)', 'T/C', '108 % of control'),
  ('COc1ccc(C2=C(Cl)C(=O)N(c3ccccc3C)C(=O)C2(Cl)Cl)cc1', 'T/C', '117 % of control');

Then this compound:
# lookup: T/C of `O=C(O)CCc1nc(-c2ccccc2)nc2c1CCc1ccccc1-2`
98 % of control

---

Overview of reported T/C across a group of compounds:
System: P388 leukemia ip, CD2F1 mice, survival T/C
Protocol Text: NCI In Vivo Anticancer Drug Screen. Data for tumor model P388 Leukemia (intraperitoneal) in CD2F1 (CDF1) mice
Study Conditions: endpoint: median survival time; dose: 100.0 mg/kg/injection; schedule: Q01DX005 (ip); vehicle: saline with Tween-80; higher = longer survival
Inconclusive results and toxic doses are left out.

Below, each entry is followed by its recorded T/C result.
INSERT INTO measurements (compound, obs_value) VALUES
  ('COc1ccc(C(=O)c2ccc(OCCBr)cc2)c(O)c1', '88 % of control'),
  ('CCN(CC)CCOC(C)(C#CC(C)(O)CC)CC (stereo not given)', '106 % of control'),
  ('CCCCCCCCCCCn1nnnc1N', '93 % of control');

# lookup: T/C of CC(O)C(O)C(O)C(=O)NCc1ccccc1 (stereo not given)
94 % of control

# lookup: T/C of C=CCOc1cc2c(cc1C(C)c1cc(OC)c(OC)c(OC)c1)OCO2 (stereo not given)
99 % of control

# lookup: T/C of COC(=O)C1C(C(=O)OC)C2N(c3ccccc3)C=NN2C1C(=O)c1ccccc1 (stereo not given)
103 % of control

# lookup: T/C of `O=C(N/N=C/c1c(O)ccc2ccccc12)C(=O)N/N=C/c1c(O)ccc2ccccc12`
186 % of control

# lookup: T/C of `CC1(C)CC(NC(=O)C(C)(C)Oc2ccc(Cl)cc2)CC(C)(C)N1`
100 % of control

# lookup: T/C of CN1C(=O)CN2CCc3ccccc3C2c2cc(Cl)ccc21 (stereo not given)
98 % of control

---

Overview of reported T/C across a group of compounds:
System: P388 leukemia ip, CD2F1 mice, survival T/C
Protocol Text: NCI In Vivo Anticancer Drug Screen. Data for tumor model P388 Leukemia (intraperitoneal) in CD2F1 (CDF1) mice
Study Conditions: endpoint: median survival time; dose: 30.0 mg/kg/injection; schedule: Q01DX005 (ip); vehicle: saline with Tween-80; higher = longer survival
Toxic doses and inconclusive results are not listed.

Below, each entry is followed by its recorded T/C result.
INSERT INTO results (compound, quantity, obs_value) VALUES
  ('O=C(OC1CCc2ccccc2C1)c1ccc(N=Nc2ccccc2)cc1 (stereo unspecified)', 'T/C', '97 % of control'),
  ('COc1ccc(/C=N/NC(=S)NC23CC4CC(CC(C4)C2)C3)cc1OC', 'T/C', '89 % of control'),
  ('O=C(Nc1ccc(Cl)cc1)Nc1nnc(COc2ccccc2)o1', 'T/C', '88 % of control'),
  ('COc1ccc(/C=N/NC(=O)c2ccncc2)cc1F', 'T/C', '99 % of control'),
  ('COc1nc(Cl)cn(C)c1=O', 'T/C', '98 % of control');

Then this compound:
# lookup: T/C of `COc1ccc2c(=O)c(Cc3c[nH]c4ccccc34)coc2c1`
86 % of control

---

Overview of reported T/C across a group of compounds:
System: P388 leukemia ip, CD2F1 mice, survival T/C
Protocol Text: NCI In Vivo Anticancer Drug Screen. Data for tumor model P388 Leukemia (intraperitoneal) in CD2F1 (CDF1) mice
Study Conditions: endpoint: median survival time; dose: 200.0 mg/kg/injection; schedule: Q01DX001 (ip); vehicle: saline; higher = longer survival
Inconclusive results and toxic doses are left out.

Below, each entry is followed by its recorded T/C result.
INSERT INTO results (compound, test_system, obs_value) VALUES
  ('Nc1nc2c(c(=O)[nH]1)[N+]1=CN(c3ccc(C(=O)NC(CCC(=O)O)C(=O)O)cc3)CC1CC2 (configuration not stated)', 'P388 leukemia ip, CD2F1 mice, survival T/C', '94 % of control'),
  ('COC(=O)C1=C/CCCN(C(c2ccccc2)c2ccccc2)/C=C\1C(=O)OC', 'P388 leukemia ip, CD2F1 mice, survival T/C', '91 % of control'),
  ('O=c1[nH]c(=O)c2nc(-c3ccccn3)cnc2[nH]1', 'P388 leukemia ip, CD2F1 mice, survival T/C', '92 % of control'),
  ('CNC(=O)Oc1ccc(OC2OC(CO)C(O)C(O)C2O)c2ccccc12 (configuration not stated)', 'P388 leukemia ip, CD2F1 mice, survival T/C', '104 % of control'),
  ('CC(C)=NNC(=O)C1CCN1Cc1ccccc1 (configuration not stated)', 'P388 leukemia ip, CD2F1 mice, survival T/C', '111 % of control'),
  ('C=CCC1(COS(N)(=O)=O)OC(n2cnc3c(N)ncnc32)C(O)C1O (configuration not stated)', 'P388 leukemia ip, CD2F1 mice, survival T/C', '111 % of control');

Then this compound:
# lookup: T/C of `O=P(O)(O)Oc1ccc(NCCO)cc1`
100 % of control

---

System: P388 leukemia ip, CD2F1 mice, survival T/C
Protocol Text: NCI In Vivo Anticancer Drug Screen. Data for tumor model P388 Leukemia (intraperitoneal) in CD2F1 (CDF1) mice
Study Conditions: endpoint: median survival time; dose: 240.0 mg/kg/injection; schedule: Q01DX005 (ip); vehicle: saline with Tween-80; higher = longer survival
Toxic doses and inconclusive results are not listed.
Quantity: T/C

Below, each entry is followed by its recorded T/C result.
INSERT INTO measurements (compound, test_system, obs_value) VALUES
  ('Nc1nnc(Cc2ccccc2)n1N', 'P388 leukemia ip, CD2F1 mice, survival T/C', '94 % of control'),
  ('Oc1cc2c(cc1C(c1ccc3c(c1)OCO3)n1ccnc1)OCO2 (configuration not stated)', 'P388 leukemia ip, CD2F1 mice, survival T/C', '94 % of control'),
  ('O=C(Nc1ccccc1C(F)(F)F)N(CCO)C1CCCCC1', 'P388 leukemia ip, CD2F1 mice, survival T/C', '103 % of control'),
  ('Cc1cccc(Cl)c1NC(=O)NCCCN1CCOCC1', 'P388 leukemia ip, CD2F1 mice, survival T/C', '112 % of control'),
  ('CCNC1=C(C(=O)OCC)C(=O)CO1', 'P388 leukemia ip, CD2F1 mice, survival T/C', '99 % of control');

Any idea what T/C came out for `CC(/C=C/c1ccc(Cl)cc1)=N\NC(N)=O` on P388 leukemia ip, CD2F1 mice, survival T/C?
99 % of control

Any idea what T/C came out for `CCOc1cccc(Cc2c[nH]c(=O)[nH]c2=O)c1` on P388 leukemia ip, CD2F1 mice, survival T/C?
90 % of control

---

System: P388 leukemia ip, CD2F1 mice, survival T/C
Protocol Text: NCI In Vivo Anticancer Drug Screen. Data for tumor model P388 Leukemia (intraperitoneal) in CD2F1 (CDF1) mice
Study Conditions: endpoint: median survival time; dose: 100.0 mg/kg/injection; schedule: Q01DX009 (ip); vehicle: Klucel (hydroxypropylcellulose) (HPC); higher = longer survival
Method: The antitumor activity of compounds was measured in mice bearing transplantable tumors. Survival or tumor size were measured and the results are expressed as the measurement made in the treated group (T) divided by the measurement made in the vehicle treated control group (C). The tumor model used in this assay is P388 Leukemia (intraperitoneal) in CD2F1 (CDF1) mice
Inconclusive results and toxic doses are left out.
Overview of reported T/C across a group of molecules:

INSERT INTO results (molecule, quantity, obs_value) VALUES
  ('Cc1nn(C(C)C(=O)N(C)C)c(Br)c1Br (stereo unspecified)', 'T/C', '108 % of control'),
  ('CCCOc1ccc(C(N)=S)cc1', 'T/C', '86 % of control'),
  ('COC(=O)c1ccc(SCCC(=O)CNc2nc(N)nc(N)c2[N+](=O)[O-])cc1', 'T/C', '93 % of control');

# lookup: T/C of `S=c1[nH]c2ccccc2n2cccc12`
108 % of control

# lookup: T/C of `CCCSc1nc2ccc(N=Cc3ccccc3O)cc2s1`
90 % of control

# lookup: T/C of `Cc1cccc(/C=N/Nc2cc(C)nc3ccccc23)n1`
118 % of control
